Recorded binding, % of positive control peptide by entry
tested-on: T1, MHC class I molecule A*0201 (biotin (bound to streptavidin-coated plate))
T1 construct: iTopia monomer stripped of placeholder peptide and b2M, then reconstituted with test peptide and fresh b2M; also called A2; HLA-A2
method: iTopia peptide binding assay

>>> readout_value("IRVFLDNNP [5T4 9-mer peptide 144 (IRVFLDNNP)]")
"4 % of positive control"
>>> readout_value("NIRDACRDH [5T4 9-mer peptide 194 (NIRDACRDH)]")
"1 % of positive control"
>>> readout_value("PRLTNLSSN [5T4 9-mer peptide 205 (PRLTNLSSN)]")
"8 % of positive control"

Q: // lookup binding, % of positive control peptide for DCHMADMVT [5T4 9-mer peptide 150 (DCHMADMVT)]
A: 7 % of positive control

Q: Endpoint output: binding, % of positive control peptide of ESLHLEDNA [5T4 9-mer peptide 131 (ESLHLEDNA)] . Value?
A: 8 % of positive control
